Entry source: PubChem BioAssay (Tox21)

target: Nuclear receptor subfamily 1 group I member 2 (Homo sapiens) (UniProt O75469); assay: Human pregnane X receptor (PXR) small molecule agonists, qHTS assay (AID 1346982); conditions: PXR-Luc HepG2, CYP3A4 luciferase reporter, 24 h; series mostly up to 92.4 µM; note: nearly all actives have a fitted effect of over 35% in size
Sequence (O75469 whole entry, looked up): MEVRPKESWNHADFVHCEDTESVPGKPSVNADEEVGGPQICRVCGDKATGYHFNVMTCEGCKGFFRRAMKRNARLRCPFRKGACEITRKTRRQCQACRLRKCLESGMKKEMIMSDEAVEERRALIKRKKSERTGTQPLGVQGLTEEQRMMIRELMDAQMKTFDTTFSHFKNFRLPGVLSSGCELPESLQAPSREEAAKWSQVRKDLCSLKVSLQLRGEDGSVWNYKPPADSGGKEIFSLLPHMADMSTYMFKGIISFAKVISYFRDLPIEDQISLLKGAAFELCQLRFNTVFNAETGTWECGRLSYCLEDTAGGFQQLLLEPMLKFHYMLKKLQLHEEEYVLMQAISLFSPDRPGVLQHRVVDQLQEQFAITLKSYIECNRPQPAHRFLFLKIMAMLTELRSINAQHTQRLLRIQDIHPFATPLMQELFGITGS
Records with an inconclusive call do not appear. Active and inactive are the calls of the source. Calls come from the whole dose curve; as a rule, active = well fitted activation curve with a large enough effect in the repeat runs; inconclusive = weak or mixed curves; inactive = no such curve, though single readings can be large or run the other way.
The categories you may choose from are label 1 (active), label 0 (inactive)

Reference set (3 entries):
> print(dat)
                           molecule                             tested.target  assigned.label
1                    Nc1n[nH]c(N)n1  Nuclear receptor subfamily 1 group I member 2 (Homo sapiens) (UniProt O75469)         label 0
2                         N#CCNCC#N  Nuclear receptor subfamily 1 group I member 2 (Homo sapiens) (UniProt O75469)         label 0
3  O=[N+]([O-])c1cc(Cl)c(Cl)c(Cl)c1  Nuclear receptor subfamily 1 group I member 2 (Homo sapiens) (UniProt O75469)         label 0

Look up the recorded call for [Cl][Sn]([Cl])([Cl])[Cl] in this test.
label 0

Just curious, what result did CC1COC2(c3ccccc3Cl)c3cc(Cl)ccc3NC(=O)CN12 (stereo not given) get here?
label 1

----------
test: qHTS assay to identify small molecule agonists or antagonists of the thyroid stimulating hormone receptor (TSHR) signaling pathway - wild type cell line counter screen (AID 1259384); settings: HEK293 wild type, cAMP HTRF counter-screen; series mostly up to 92.4 µM
Results filed as inconclusive are left out. Calls of active or inactive are those of the source. Calls follow the shape of the full dose curve.
# valid calls are y (active), n (inactive); nothing else

> print(dat)
                                   compound  assigned.label
1                                 ClC(Cl)Br               n
2                          Fc1cc(Br)ccc1CBr               n
3  NC(=O)c1cc([N+](=O)[O-])cc([N+](=O)[O-])c1               n
4  CC(C)(C)OC(=O)c1ncn2c1[C@@H]1CCCN1C(=O)c1c(Br)cccc1-2               n
5  COc1cccc2c1cc([N+](=O)[O-])c1c(C(=O)O)cc3c(c12)OCO3               n

Fill in: this test's call for CNCC(=O)c1ccc(O)c(O)c1 is ___
y

Would you mind telling me which call this test gave CC(=O)C(Cl)Cl ?
n

Hello, I am checking results. What call was entered for O=S(=O)(O)C(F)(F)C(F)(F)C(F)(F)C(F)(F)C(F)(F)C(F)(F)F ?
n

Answer briefly: the call reported for CC(Cl)(Cl)[N+](=O)[O-] in this assay.
n

Each compound tested received a call. Report the one for Cc1cc(C)c(C(=O)P(=O)(C(=O)c2c(C)cc(C)cc2C)c2ccccc2)c(C)c1 .
n

Outcome? COC(=O)C(c1ccccc1)C1CCCCN1 (stereo not given)
n

Identify the outcome logged in this assay for the compound shown: COc1cccc(C(=O)NN(C(=O)c2cc(C)cc(C)c2)C(C)(C)C)c1C
n

Could you check what this test reported for CCS(=O)(=O)C(C)(C)S(=O)(=O)CC ?
n
